Source listed as patent US7420001B2.

Could you please report measured log10(IC50) for the items listed next?
# system-tested: MMP-13 (Homo sapiens, UniProt P45452)
# Construct: made in house
# protocol-details: In-vitro fluorescence assay of MMP-13 activity
# Assay type: biochemical
# condition-set: recombinant human catalytic domain of MMP-13; read-out: MMP-13 IC50
Please note: log10 values; quantity IC50; unit nM.

Qu. Quick one: log10(IC50) of CC(=O)c1cccc2oc(C(=O)Nc3ccc(-c4ccc(S(=O)(=O)N[C@H](C(=O)O)C(C)C)cc4)cc3)c(C)c12 [Example 94] ?
Ans. 0.65

Qu. Quick one: log10(IC50) of Cc1c(C(=O)Nc2ccc(-c3ccc(S(=O)(=O)N[C@H](C(=O)O)C(C)C)cc3)cc2)oc2cccc(OC(C)C)c12 [Example 108] ?
Ans. 1.11

Qu. Quick one: log10(IC50) of Cc1c(C(=O)Nc2ccc(-c3ccc(S(=O)(=O)N[C@H](C(=O)O)C(C)C)cc3)cc2)oc2cccc(C#CCC(C)C)c12 [Example 28] ?
Ans. 1.67

Qu. Quick one: log10(IC50) of Cc1c(C(=O)Nc2ccc(-c3ccc(S(=O)(=O)N[C@H](C(=O)O)C(C)C)cc3)nc2)oc2cccc(NS(C)(=O)=O)c12 [Example 39] ?
Ans. 1.48

Qu. Quick one: log10(IC50) of Cc1cc(-c2cccc3oc(C(=O)Nc4ccc(-c5ccc(S(=O)(=O)N[C@H](C(=O)O)C(C)C)cc5)cc4)c(C)c23)on1 [Example 35] ?
Ans. 1.00

Qu. Quick one: log10(IC50) of Cc1c(C(=O)Nc2ccc(-c3ccc(S(=O)(=O)N[C@H](C(=O)O)C(C)C)cc3)cc2)oc2cccc(OCc3ccccn3)c12 [Example 178] ?
Ans. 1.11

Qu. Quick one: log10(IC50) of CC(C)[C@@H](C(=O)O)N(C)S(=O)(=O)c1ccc(-c2ccc(NC(=O)c3cc4ccccc4o3)cc2)cc1 [Example 78] ?
Ans. 3.75

Qu. Quick one: log10(IC50) of CCS(=O)(=O)Nc1cccc2oc(C(=O)Nc3ccc(-c4ccc(S(=O)(=O)N[C@H](C(=O)O)C(C)C)cc4)cc3)c(C)c12 [Example 68] ?
Ans. 1.08

Qu. Quick one: log10(IC50) of CCn1c(C(=O)Nc2ccc(-c3ccc(S(=O)(=O)N[C@H](C(=O)O)C(C)C)cc3)nc2)nc2ccccc21 [Example 162] ?
Ans. 1.93

* * *

# system-tested: MMP-1 (Homo sapiens)
# Sequence (P03956 100-269 limits assumed): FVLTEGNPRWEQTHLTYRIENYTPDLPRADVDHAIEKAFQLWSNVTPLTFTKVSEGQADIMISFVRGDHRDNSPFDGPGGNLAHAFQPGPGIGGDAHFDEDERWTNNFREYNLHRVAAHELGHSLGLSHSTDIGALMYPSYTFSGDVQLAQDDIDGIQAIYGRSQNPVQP
parameter-measured: IC50

Qu. Quick one: IC50 of CC(C)[C@@H](C(=O)O)N(CCN1CCOCC1)S(=O)(=O)c1ccc(-c2ccc(NC(=O)c3cc4ccccc4o3)cc2)cc1 [Example 82] ?
Ans. > 10 µM

Qu. Quick one: IC50 of COCCCc1cccc2oc(C(=O)Nc3ccc(-c4ccc(S(=O)(=O)N[C@H](C(=O)O)C(C)C)cc4)cc3)c(C)c12 [Example 30] ?
Ans. > 18 µM

Qu. Quick one: IC50 of CC(C)[C@H](NS(=O)(=O)c1ccc(-c2ccc(NC(=O)c3cc4ccccc4o3)cc2)cc1)C(=O)O [Example 2] ?
Ans. > 3.5 µM

* * *

Could you please report measured IC50 for the items listed next?
# system-tested: MMP-13 (Homo sapiens, UniProt P45452)
# Construct: made in house
# protocol-details: In-vitro fluorescence assay of MMP-13 activity
# Type: biochemical
# condition-set: recombinant human catalytic domain of MMP-13; read-out: MMP-13 IC50
Lab book: enter the figure in nM, no units written.

Qu. Quick one: IC50 of CC(C)[C@H](NS(=O)(=O)c1ccc(-c2ccc(NC(=O)c3ccco3)cc2)cc1)C(=O)O ?
Ans. 11

Qu. Quick one: IC50 of CCC(C)Oc1cccc2oc(C(=O)Nc3ccc(-c4ccc(S(=O)(=O)N[C@H](C(=O)O)C(C)C)cc4)cc3)c(C)c12 (some centres unmarked) ?
Ans. 17

Qu. Quick one: IC50 of COc1cccc2oc(C(=O)Nc3ccc(-c4ccc(S(=O)(=O)N[C@H](C(=O)O)C(C)C)cc4)cc3)cc12 ?
Ans. 2.3

Qu. Quick one: IC50 of Cc1c(C(=O)Nc2ccc(-c3ccc(S(=O)(=O)N[C@H](C(=O)O)C(C)C)cc3)cc2)oc2cccc(N3CCCS3(=O)=O)c12 ?
Ans. 11.9

Qu. Quick one: IC50 of CC(C)[C@@H](NS(=O)(=O)c1ccc(-c2ccc(OCc3nc4ccccc4n3C)cc2)cc1)C(=O)O ?
Ans. 89.3

Qu. Quick one: IC50 of Cc1c(C(=O)Nc2ccc(-c3ccc(S(=O)(=O)N[C@H](C(=O)O)C(C)C)cc3)cc2)oc2cccc(C#CC3CC3)c12 ?
Ans. 21

Qu. Quick one: IC50 of CCS(=O)(=O)N(C)c1cccc2oc(C(=O)Nc3ccc(-c4ccc(S(=O)(=O)N[C@H](C(=O)O)C(C)C)cc4)cc3)c(C)c12 ?
Ans. 14

Qu. Quick one: IC50 of CC(C)C[C@H](NS(=O)(=O)c1ccc(-c2ccc(NC(=O)c3cc4ccccc4o3)cc2)cc1)C(=O)O ?
Ans. 2.2

Qu. Quick one: IC50 of CC(C)[C@H](NS(=O)(=O)c1ccc(-c2ccc(NC(=O)c3cc4cc(Br)ccc4o3)cc2)cc1)C(=O)O ?
Ans. 0.6

Qu. Quick one: IC50 of Cc1c(C(=O)Nc2ccc(-c3ccc(S(=O)(=O)N[C@H](C(=O)O)C(C)C)cc3)cc2)oc2ccc(Cl)c(OC(C)C)c12 ?
Ans. 11

Qu. Quick one: IC50 of Cc1c(C(=O)Nc2ccc(-c3ccc(S(=O)(=O)N[C@H](C(=O)O)C(C)C)cc3)cc2)oc2ccc(Br)cc12 ?
Ans. 3
